test-details: in vitro
measurement-conditions: human, HEK293 cells (Flp-In-293), HEK293 viability, Dose 6.25 µM
experimental-readout: viability at 2 days, 6.25 µM (%)
Answer with a number only, understood to be in %.

Example results:
substance-smiles: Clc1ccc(Cn2cnc3ccccc32)cc1Cl
experimental-readout: viability at 2 days, 6.25 µM
value-unit: %
result-number: 52.9
//
substance-smiles: Cc1ccc(OCCn2cnc3ccccc32)cc1
experimental-readout: viability at 2 days, 6.25 µM
value-unit: %
result-number: 98.5
//
substance-smiles: Clc1ccc(Cn2cnc3ccccc32)c(Cl)c1
experimental-readout: viability at 2 days, 6.25 µM
value-unit: %
result-number: 100
//
substance-smiles: Clc1ccc(OCCn2cnc3ccccc32)c(Cl)c1
experimental-readout: viability at 2 days, 6.25 µM
value-unit: %
result-number: 100

We now examine a further compound.
**Query** Data request, read-out viability at 2 days, 6.25 µM, for Brc1ccccc1OCCCCn1cnc2ccccc21
**Result** 98.1
